Structures can show the parent of a compound that is named as a salt.
Entries annotated with measured melting point

Here is how some compounds turned out for melting point.
{"COMPOUND": "N[C@@H](CSSC[C@H](N)C(=O)N1CCn2nc(-c3ccccc3)cc2C1CCc1ccccc1)C(=O)N1CCn2nc(-c3ccccc3)cc2C1CCc1ccccc1 (mixture of isomers) (as salt: hydrochloride)", "OBSERVED RESULT": "208 °C (dec.)"}
{"COMPOUND": "N[C@@H](CSSC[C@H](N)C(=O)N1CCn2nc(-c3ccccc3)cc2[C@@H]1CC1CCCCC1)C(=O)N1CCn2nc(-c3ccccc3)cc2[C@@H]1CC1CCCCC1 (as salt: hydrochloride)", "OBSERVED RESULT": "214 to 219 °C"}

Return reported melting point; argument: CCCCCC1c2cc(-c3ccccc3)nn2CCN1C(=O)[C@@H](N)CSSC[C@H](N)C(=O)N1CCn2nc(-c3ccccc3)cc2C1CCCCC (mixture of isomers) (as salt: hydrochloride)
199 to 204 °C (dec.)
